measurement description: Cytotoxicity against human CEM cells after 72 hrs by celltiter-glo assay
Assay type: cell-based, CCRF-CEM
endpoint name: CC50 at 72 h (µM)
Answer with a number only, understood to be in µM.

Measured CC50 at 72 h of C[C@H](NP(=O)(OC[C@H]1O[C@@H](n2cnc3c(=O)[nH]c(N)nc32)[C@](C)(O)[C@@H]1O)Oc1cccc2ccccc12)C(=O)O[C@@H](C)c1ccccc1 (stereo partly specified) : 82

* * *

System: Liver
measurement description: Dose normalized AUC in ICR mouse liver at 50 mg/kg, po by LC-MS/MS analysis
Format: ADME, organism-based
Parameters: dose 50 mg/kg, route oral
test parameters: in vivo
Below is a list of entries, each paired with its recorded AUC value.
Please state the value followed by its unit.

Here's what some known entries look like.
C[C@H](NP(=O)(OC[C@H]1O[C@@H](n2cnc3c(=O)[nH]c(N)nc32)[C@](C)(O)[C@@H]1O)Oc1cccc2ccccc12)C(=O)OCC(C)(C)C (stereo partly drawn) :: 32 ng·h/g
C[C@H](NP(=O)(OC[C@H]1O[C@@H](n2cnc3c(=O)[nH]c(N)nc32)[C@](C)(O)[C@@H]1O)Oc1cccc2ccccc12)C(=O)O[C@@H](C)c1ccccc1 (stereo partly drawn) :: 108 ng·h/g

Looking up CC(C)[C@H](NP(=O)(OC[C@H]1O[C@@H](n2cnc3c(=O)[nH]c(N)nc32)[C@](C)(O)[C@@H]1O)Oc1cccc2ccccc12)C(=O)OCc1ccccc1Cl (stereo partly drawn) , I see its AUC listed as 18 ng·h/g
